B1: F1*; the commonest letter at each place (parent)
chain: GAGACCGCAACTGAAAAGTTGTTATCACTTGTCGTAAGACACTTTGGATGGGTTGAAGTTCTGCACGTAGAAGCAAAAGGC

variants of: B1; test: fraction ligated after 30 min (ligated reads / total reads); higher = more ligase activity; conditions: with F1*sub RNA substrate (template-directed ligation), 42 °C
Would you mind labelling by fraction ligated? At or over 0.8 is Fulfilled, under is Not fulfilled.

mut	group
C33G A48C	Not fulfilled
T25A A48C	Not fulfilled
A24T T35G	Not fulfilled
A39T G46C	Not fulfilled
T44A G47A	Not fulfilled
C26A C28T	Not fulfilled

Could you please find out whether T30G A57T has fraction ligated that meets 0.8 or exceeds it?
Fulfilled

Could you please find out whether G31T A56C has fraction ligated that meets 0.8 or exceeds it?
Not fulfilled

Could you please find out whether A36G C40T has fraction ligated that meets 0.8 or exceeds it?
Fulfilled

Could you please find out whether T30A C42T has fraction ligated that meets 0.8 or exceeds it?
Fulfilled

Could you please find out whether A41G G50C has fraction ligated that meets 0.8 or exceeds it?
Not fulfilled

Could you please find out whether G38T C40A has fraction ligated that meets 0.8 or exceeds it?
Fulfilled

Could you please find out whether C40A G50A has fraction ligated that meets 0.8 or exceeds it?
Not fulfilled

Could you please find out whether G38A G50C has fraction ligated that meets 0.8 or exceeds it?
Not fulfilled

Hey, just so you know, these numbers are from the supplement of paper PMC6755084.
